Test system: BT-549
Test: normalised response (% of control), CellTox Green; higher = less cell death (100 = DMSO, 0 = benzethonium chloride kill control)
Details: incubation time: 72 h
Property Label: normalised response (%)
# output: bare number, implied unit %

// below: answered molecules
Cn1cc(C[C@@H](N)C(=O)O)c2ccccc21 [1-methyl-D-tryptophan] (5000 nM) :: 90
C[C@@H](C(=O)O)c1ccc(-c2ccccc2)c(F)c1 [Tarenflurbil] (1000 nM) :: 108
C[C@@H]1C[C@H]2[C@@H]3CCC4=CC(=O)C=C[C@]4(C)[C@@]3(F)[C@@H](O)C[C@]2(C)[C@@]1(O)C(=O)CO [Dexamethasone] (1000 nM) :: 111
CC[C@H](CC#N)OC(=O)N[C@@H](C)c1cccc(NC(=O)Nc2ccc(-c3cnco3)c(OC)c2)c1 [AVN944] (100 nM) :: 102

Input line: Record request: normalised response value, item Cn1cc(C[C@@H](N)C(=O)O)c2ccccc21 [1-methyl-D-tryptophan] (50 nM)
Output line: 88

Input line: Param item: CC(C)(C)Cn1c(N)nc2ccc(-c3[nH]c(C(C)(C)C)nc3-c3ccc(F)cc3)nc21 (100 nM)
Output line: 101

Input line: Param item: CN1CCN(c2nc(C3=C(c4c[nH]c5ccccc45)C(=O)NC3=O)c3ccccc3n2)CC1 [Sotrastaurin] (10000 nM)
Output line: 99.7

Input line: Param item: CC(C)C(=O)Nc1ccc([N+](=O)[O-])c(C(F)(F)F)c1 [Flutamide] (100 nM)
Output line: 94.1
